Target: 5-hydroxytryptamine receptor 1D (Sus scrofa)
Sequence (P79400 whole entry): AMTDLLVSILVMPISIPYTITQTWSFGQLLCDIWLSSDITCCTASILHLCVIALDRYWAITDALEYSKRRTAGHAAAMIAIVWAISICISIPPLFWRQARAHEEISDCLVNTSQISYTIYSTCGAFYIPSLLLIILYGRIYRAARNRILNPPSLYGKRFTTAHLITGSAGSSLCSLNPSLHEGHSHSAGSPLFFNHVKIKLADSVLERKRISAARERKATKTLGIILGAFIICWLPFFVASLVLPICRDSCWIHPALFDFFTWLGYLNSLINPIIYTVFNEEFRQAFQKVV
Test: Displacement of radioligand [3H]5-HT binding to 5-hydroxytryptamine 1D receptor in pig caudate membrane
Format: cell membranes
pIC50: −log10 of the molar value.
// label = rule met if pIC50 is not less than 8, otherwise rule not met

## Input Tell me whether pIC50 is at least 8 here: `Cc1noc(Cc2ccc3[nH]cc(CCN(C)C)c3c2)n1`
## Output rule not met

## Input Tell me whether pIC50 is at least 8 here: `NCCc1c[nH]c2ccc(Cc3nc(Cc4ccccc4)no3)cc12`
## Output rule not met

## Input Tell me whether pIC50 is at least 8 here: `CN(C)CCc1c[nH]c2ccc(Cc3nc(Cc4ccc(NS(C)(=O)=O)cc4)no3)cc12`
## Output rule not met

## Input Tell me whether pIC50 is at least 8 here: `CNS(=O)(=O)c1ccc(Cc2noc(-c3ccc4[nH]cc(CCN)c4c3)n2)cc1`
## Output rule met

## Input Tell me whether pIC50 is at least 8 here: `NCCc1c[nH]c2ccc(CCCc3nc(Cc4ccccc4)no3)cc12`
## Output rule met

## Input Tell me whether pIC50 is at least 8 here: `COc1cccc(Cc2noc(-c3ccc4[nH]cc(CCN)c4c3)n2)c1`
## Output rule met

***
## Input Tell me whether pIC50 is at least 8 here: `NCCc1c[nH]c2ccc(C(N)=O)cc12`
## Output rule met

## Input Tell me whether pIC50 is at least 8 here: `CC(=O)NCc1noc(-c2ccc3[nH]cc(CCN)c3c2)n1`
## Output rule not met

## Input Tell me whether pIC50 is at least 8 here: `CS(=O)(=O)Nc1ccc(Cc2noc(Cc3ccc4[nH]cc(CCN)c4c3)n2)cc1`
## Output rule met

## Input Tell me whether pIC50 is at least 8 here: `NCCc1c[nH]c2ccc(CCc3nc(Cc4ccccc4)no3)cc12`
## Output rule met

## Input Tell me whether pIC50 is at least 8 here: `Cc1noc(CCCc2ccc3[nH]cc(CCN)c3c2)n1`
## Output rule met

## Input Tell me whether pIC50 is at least 8 here: `CN(C)CCc1c[nH]c2ccc(-c3nc(Cc4ccc(NS(C)(=O)=O)cc4)no3)cc12`
## Output rule met

## Input Tell me whether pIC50 is at least 8 here: `CNC(=O)c1ccc(-c2noc(Cc3ccc4[nH]cc(CCN(C)C)c4c3)n2)cc1`
## Output rule met

## Input Tell me whether pIC50 is at least 8 here: `CN(C)CCc1c[nH]c2ccc(-c3nc(N)no3)cc12`
## Output rule not met
